- Test system: Human immunodeficiency virus 1
- test.details: Binding affinity to covalently-crosslinked hexameric HIV1 capsid protein A14C/E45C/W184A/M185A mutant expressed in Escherichia coli BL21(DE3)RIL assessed as change in melting temperature at 20 uM incubated for 30 mins by thermal shift dye based fluorescence analysis
Classification by ΔTm follows these ranges: lower segment = under 2 °C, middle segment = from 2 °C up to 8 °C, upper segment = 8 °C and over

Recorded results for 5 molecules are shown here.
Cc1ccc(N(C)C(=O)[C@H](Cc2ccccc2)NC(=O)Cc2c(C)[nH]c3ccccc23)cc1: upper segment
CCn1c(C)c(CC(=O)N[C@@H](Cc2ccccc2)C(=O)N(C)c2ccc(C)cc2)c2ccccc21: upper segment
O=C(Cc1c[nH]c2ccccc12)N[C@@H](Cc1ccccc1)C(=O)NCc1cccc2[nH]ccc12: lower segment
Cc1[nH]c2ccccc2c1CC(=O)N[C@@H](Cc1ccccc1)C(=O)NC(c1ccccc1)c1ccccc1: lower segment
CN(C(=O)[C@H](Cc1ccccc1)NC(=O)Cc1c[nH]c2ccccc12)c1cccc(Br)c1: middle segment

Given `CCn1cc(CC(=O)N[C@@H](Cc2ccccc2)C(=O)N(C)c2ccc(F)cc2)c2ccccc21` , name the class its ΔTm places it in.
middle segment

Given `CCn1cc(CC(=O)N[C@@H](Cc2ccccc2)C(=O)N(C)c2cccc(Cl)c2)c2ccccc21` , name the class its ΔTm places it in.
middle segment

Given `CN(C(=O)[C@H](Cc1ccccc1)NC(=O)CCc1c[nH]c2ccccc12)c1ccccc1` , name the class its ΔTm places it in.
middle segment

---

- Tested on: TZM
- test.details: Cytotoxicity against human TZM-GFP cells incubated for 72 hrs by XTT assay
- Type: cell-based
- study.conditions: tzm, 72 h
recorded.metric: CC50

Worked examples follow.
CN(C(=O)[C@H](Cc1ccccc1)NC(=O)Cc1c[nH]c2ccccc12)c1cccnc1: > 100 µM
O=C(Cc1c[nH]c2ccccc12)N[C@@H](Cc1ccccc1)C(=O)Nc1ccc2ncsc2c1: 68 µM
Cc1[nH]c2ccccc2c1CC(=O)N[C@@H](Cc1ccccc1)C(=O)N(C)c1cccnc1: > 100 µM
CCn1c(C)c(CC(=O)N[C@@H](Cc2ccccc2)C(=O)N(C)c2cccc(F)c2)c2ccccc21: 20 µM
CCn1cc(CC(=O)N[C@@H](Cc2ccccc2)C(=O)N(C)c2ccc(C)cc2)c2ccccc21: 14 µM
CN(C(=O)[C@H](Cc1ccccc1)NC(=O)Cc1c[nH]c2ccccc12)c1ccc(Br)cc1: 45 µM
CC(C)n1cc(CC(=O)N[C@@H](Cc2ccccc2)C(=O)N(C)c2cccc(F)c2)c2ccccc21: 12 µM
CN(C(=O)[C@H](Cc1ccccc1)NC(=O)Cc1c[nH]c2ccccc12)c1ccc(F)cc1: > 100 µM
CCn1c(C)c(CC(=O)N[C@@H](Cc2ccccc2)C(=O)N(C)c2ccc(F)cc2)c2ccccc21: 19 µM

Given `Cc1[nH]c2ccccc2c1CC(=O)N[C@@H](Cc1ccccc1)C(=O)N(C)c1cccc(F)c1` , respond with its CC50.
> 50 µM

---

- Test system: Human immunodeficiency virus 1
- test.details: Binding affinity to covalently-crosslinked hexameric HIV1 capsid protein A14C/E45C/W184A/M185A mutant expressed in Escherichia coli BL21(DE3)RIL assessed as change in melting temperature at 20 uM incubated for 30 mins by thermal shift dye based fluorescence analysis
recorded.metric: ΔTm (°C)
One number for each entry, in °C.

COc1ccc(N(C)C(=O)[C@H](Cc2ccccc2)NC(=O)Cc2c[nH]c3ccccc23)cc1: 6.2
O=C(Cc1c[nH]c2ccccc12)N[C@@H](Cc1ccccc1)C(=O)Nc1nc2ccccc2[nH]1: -0.6
CC(C)n1cc(CC(=O)N[C@@H](Cc2ccccc2)C(=O)N(C)c2ccccc2)c2ccccc21: 6
CC(C)n1cc(CC(=O)N[C@@H](Cc2ccccc2)C(=O)N(C)c2cccc(F)c2)c2ccccc21: 5.8

Attention now shifts to the item below.
Given `Cc1[nH]c2ccccc2c1CC(=O)N[C@@H](Cc1ccccc1)C(=O)N(C)c1cccc(Cl)c1` , respond with its ΔTm.
7.6

---

- Tested on: TZM
- test.details: Cytotoxicity against human TZM-GFP cells incubated for 72 hrs by XTT assay
- Assay type: cell-based
- study.conditions: tzm, 72 h
For each entry below, report its CC50 value.

Cc1[nH]c2ccccc2c1CC(=O)N[C@@H](Cc1ccccc1)C(=O)NC(c1ccccc1)c1ccccc1: > 100 µM
CN(C(=O)[C@H](Cc1ccccc1)NC(=O)Cc1c[nH]c2ccccc12)c1ccc(Cl)cc1: < 50 µM
O=C(Cc1c[nH]c2ccccc12)N[C@@H](Cc1ccccc1)C(=O)Nc1cccc(-c2nnn[nH]2)c1: > 100 µM
Cc1[nH]c2ccccc2c1CC(=O)N[C@@H](Cc1ccccc1)C(=O)Nc1ccc(C#N)cc1: > 100 µM
O=C(Cc1c[nH]c2ccccc12)N[C@@H](Cc1ccccc1)C(=O)NC(c1ccccc1)c1ccccc1: > 100 µM

The following compounds each have a reported value; give each one's CC50.
1. Cc1[nH]c2ccccc2c1CC(=O)N[C@@H](Cc1cccc(Br)c1)C(=O)N(C)c1ccccc1
2. Cc1[nH]c2ccccc2c1CC(=O)N[C@@H](Cc1ccccc1)C(=O)Nc1cccc(C#N)c1

1. < 50 µM
2. > 100 µM

---

- Test system: Human immunodeficiency virus 1
- test.details: Binding affinity to covalently-crosslinked hexameric HIV1 capsid protein A14C/E45C/W184A/M185A mutant expressed in Escherichia coli BL21(DE3)RIL assessed as change in melting temperature at 20 uM incubated for 30 mins by thermal shift dye based fluorescence analysis
recorded.metric: ΔTm (°C)
Give bare numbers, in °C.

O=C(Cc1c[nH]c2ccccc12)N[C@@H](Cc1ccccc1)C(=O)Nc1ccccc1: 0
CCn1c(C)c(CC(=O)N[C@@H](Cc2ccccc2)C(=O)N(C)c2ccc(F)cc2)c2ccccc21: 10.7
O=C(Cc1c[nH]c2ccccc12)N[C@@H](Cc1ccccc1)C(=O)NC(c1ccccc1)c1ccccc1: -1.6
CCn1cc(CC(=O)N[C@@H](Cc2ccccc2)C(=O)N(C)c2ccccc2)c2ccccc21: 6.7
CN(C(=O)[C@H](Cc1ccccc1)NC(=O)Cc1c[nH]c2ccccc12)c1ccc(F)cc1: 3.3

The following compounds each have a reported value; give each one's ΔTm.
1. CC(C)n1cc(CC(=O)N[C@@H](Cc2ccccc2)C(=O)N(C)c2ccc(F)cc2)c2ccccc21
2. Cc1[nH]c2ccccc2c1CC(=O)N[C@@H](Cc1ccccc1)C(=O)Nc1nc2ccccc2[nH]1

1: 6.5; 2: -0.6

---

For each entry below, report its ΔTm value.
- Tested on: Human immunodeficiency virus 1
- test.details: Binding affinity to covalently-crosslinked hexameric HIV1 capsid protein A14C/E45C/W184A/M185A mutant expressed in Escherichia coli BL21(DE3)RIL assessed as change in melting temperature at 20 uM incubated for 30 mins by thermal shift dye based fluorescence analysis

CC(C)n1cc(CC(=O)N[C@@H](Cc2ccccc2)C(=O)N(C)c2ccc(Cl)cc2)c2ccccc21: 7.1 °C

The following molecules each have a reported value; give each one's ΔTm.
1. Cc1[nH]c2ccccc2c1CC(=O)N[C@@H](Cc1ccccc1)C(=O)N(C)c1ccc(F)cc1
2. CC(C)n1cc(CC(=O)N[C@@H](Cc2ccccc2)C(=O)N(C)c2cccc(Cl)c2)c2ccccc21
3. Cc1[nH]c2ccccc2c1CC(=O)N[C@@H](Cc1ccccc1)C(=O)Nc1ccc(C#N)cc1
4. CN(C(=O)[C@H](Cc1ccccc1)NC(=O)Cc1c[nH]c2ccccc12)c1cc(F)cc(F)c1

1: 7 °C; 2: 4.5 °C; 3: -0.6 °C; 4: 2.3 °C

The following molecules each have a reported value; give each one's ΔTm.
1. Cc1[nH]c2ccccc2c1CC(=O)N[C@@H](Cc1ccccc1)C(=O)Nc1cccc(C#N)c1
2. O=C(Cc1c[nH]c2ccccc12)N[C@@H](Cc1ccccc1)C(=O)O

-0.5 °C
-0.6 °C

Given `CCn1cc(CC(=O)N[C@@H](Cc2ccccc2)C(=O)N(C)c2ccc(Cl)cc2)c2ccccc21` , respond with its ΔTm.
8.6 °C

---

For each entry below, report its CC50 value.
- System: TZM
- test.details: Cytotoxicity against human TZM-GFP cells incubated for 72 hrs by XTT assay
- Type: cell-based
- study.conditions: tzm, 72 h

Worked examples follow.
COc1ccc(N(C)C(=O)[C@H](Cc2ccccc2)NC(=O)Cc2c[nH]c3ccccc23)cc1: > 100 µM
Cc1[nH]c2ccccc2c1CC(=O)N[C@@H](Cc1ccccc1)C(=O)Nc1cccnn1: > 100 µM
CN(C(=O)[C@H](NC(=O)Cc1c[nH]c2ccccc12)c1ccccc1)c1ccccc1: > 50 µM

Attention now shifts to the item below.
Given `O=C(Cc1c[nH]c2ccccc12)N[C@@H](Cc1ccccc1)C(=O)NCc1cccc2[nH]ccc12` , respond with its CC50.
< 100 µM

---

- Tested on: TZM
- test.details: Cytotoxicity against human TZM-GFP cells incubated for 72 hrs by XTT assay
- Format: cell-based
- study.conditions: tzm, 72 h
Exam item: assign criterion met to entries whose CC50 is below 20 µM and criterion not met to entries at or above 20 µM. Note that a value of exactly 20 µM receives criterion not met.

Recorded results for 3 compounds are shown here.
O=C(Cc1c[nH]c2ccccc12)N[C@@H](Cc1ccccc1)C(=O)Nc1cccnn1: criterion not met
Cc1[nH]c2ccccc2c1CC(=O)N[C@@H](Cc1ccccc1)C(=O)N(C)c1cccnn1: criterion not met
Cc1[nH]c2ccccc2c1CC(=O)N[C@@H](Cc1ccccc1)C(=O)Nc1nc2ccccc2[nH]1: criterion met

Does this compound meet the criterion CC50 < 20 µM? `Cc1c(CC(=O)N[C@@H](Cc2ccccc2)C(=O)N(C)c2cccc(F)c2)c2ccccc2n1C(C)C`
criterion met

Does this compound meet the criterion CC50 < 20 µM? `CCn1cc(CC(=O)N[C@@H](Cc2ccccc2)C(=O)N(C)c2cccc(F)c2)c2ccccc21`
criterion not met

Does this compound meet the criterion CC50 < 20 µM? `Cc1ccc(N(C)C(=O)[C@H](Cc2ccccc2)NC(=O)Cc2c(C)n(C(C)C)c3ccccc23)cc1`
criterion met

Does this compound meet the criterion CC50 < 20 µM? `O=C(Cc1c[nH]c2ccccc12)N[C@@H](Cc1ccccc1)C(=O)O`
criterion not met

Does this compound meet the criterion CC50 < 20 µM? `Cc1[nH]c2ccccc2c1CC(=O)N[C@@H](Cc1ccccc1)C(=O)NCc1cccc2[nH]ccc12`
criterion not met

Does this compound meet the criterion CC50 < 20 µM? `CCn1c(C)c(CC(=O)N[C@@H](Cc2ccccc2)C(=O)N(C)c2cccc(Cl)c2)c2ccccc21`
criterion met
